Assay: Binding affinity to human Hum21 [5'-G3(T2AG3)3-3'] G-quadruplex DNA at 5 uM in 10 mM pH 7.4 Tris-Hcl buffer containing 0.1 mM EDTA and 0.1 M NaCl by UV-Vis absorption sperctrometry
Form field: pKd (one value per entry).
Note: pKd values are expressed as the negative base-10 logarithm of concentration in M.

{"columns": ["Line Notation", "pKd"],
 "data": [
  ["CN1CCN(CCCCn2c3ccc(-c4nc5cc(N6CCN(CCO)CC6)ccc5[nH]4)cc3c3cc(-c4nc5cc(N6CCN(CCO)CC6)ccc5[nH]4)ccc32)CC1", 7.30]
]}

The value of pKd measured for the compound CN1CCN(CCCCn2c3ccc(-c4nc5cc(-c6nc7cc(N8CCN(C)CC8)ccc7[nH]6)ccc5[nH]4)cc3c3cc(-c4nc5cc(-c6nc7cc(N8CCN(C)CC8)ccc7[nH]6)ccc5[nH]4)ccc32)CC1 turned out to be 6.42

// sample CN1CCN(CCCCn2c3ccc(-c4nc5cc(N6CCN(C)CC6)ccc5[nH]4)cc3c3cc(-c4nc5cc(N6CCN(C)CC6)ccc5[nH]4)ccc32)CC1 , its pKd was 6.47

Noted for CN1CCN(CCCCn2c3ccc(-c4nc5cc(N6CCOCC6)ccc5[nH]4)cc3c3cc(-c4nc5cc(N6CCOCC6)ccc5[nH]4)ccc32)CC1 : its pKd reads 6.32
